Target: c-KIT (Homo sapiens, UniProt P10721)
Construct: M-07e cells (human acute megakaryoblastic leukemia cell line) were serum-starved for 4 hours; endogenous in cells
Sequence (P10721 26-976): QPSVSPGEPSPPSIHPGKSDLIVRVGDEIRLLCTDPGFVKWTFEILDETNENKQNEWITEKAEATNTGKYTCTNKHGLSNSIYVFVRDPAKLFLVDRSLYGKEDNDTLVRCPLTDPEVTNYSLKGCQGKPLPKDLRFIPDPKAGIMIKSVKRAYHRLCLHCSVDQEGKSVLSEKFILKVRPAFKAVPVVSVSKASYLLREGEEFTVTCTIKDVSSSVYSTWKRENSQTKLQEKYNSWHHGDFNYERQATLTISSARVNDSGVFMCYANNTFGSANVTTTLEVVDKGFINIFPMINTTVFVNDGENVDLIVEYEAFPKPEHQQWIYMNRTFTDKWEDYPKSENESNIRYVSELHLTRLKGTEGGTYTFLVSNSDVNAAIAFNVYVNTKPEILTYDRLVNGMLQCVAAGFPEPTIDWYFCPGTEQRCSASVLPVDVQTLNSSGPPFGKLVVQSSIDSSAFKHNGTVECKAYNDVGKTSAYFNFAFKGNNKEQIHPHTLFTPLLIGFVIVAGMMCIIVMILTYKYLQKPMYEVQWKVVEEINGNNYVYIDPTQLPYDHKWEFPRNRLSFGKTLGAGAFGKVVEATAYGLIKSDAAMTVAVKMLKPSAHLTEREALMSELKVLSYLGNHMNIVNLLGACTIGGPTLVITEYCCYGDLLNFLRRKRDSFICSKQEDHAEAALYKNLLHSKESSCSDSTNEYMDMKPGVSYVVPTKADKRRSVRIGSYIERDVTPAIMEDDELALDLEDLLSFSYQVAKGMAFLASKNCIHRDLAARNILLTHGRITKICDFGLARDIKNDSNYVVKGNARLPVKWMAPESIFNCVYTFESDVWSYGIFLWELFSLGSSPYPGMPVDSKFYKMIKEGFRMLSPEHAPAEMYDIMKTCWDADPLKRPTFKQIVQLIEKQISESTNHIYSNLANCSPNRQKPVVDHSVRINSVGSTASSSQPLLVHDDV
Test: c-KIT Cell-Based Assay (Example D)
Details: averaged IC50; phospho-c-KIT in M-07e cells stimulated with 150 ng/ml recombinant human SCF; read-out: cKIT Cell ELISA IC50
Counter-ions that a name gives are not always drawn.
Under this convention, MET denotes IC50 strictly below 0.05 µM and NOT MET denotes IC50 at or above 0.05 µM.

Task: In the record for COCCOc1ccn2c(C(=O)Nc3cccc4c3c(C)nn4CC3CCOCC3)cnc2c1 [Example 83] , is IC50 less than 0.05 µM?
Result: NOT MET

Task: In the record for Cc1cccc(Cn2nc(C)c3c(NC(=O)c4cnc5cc(CCO)ccn45)cccc32)n1 [Example 73] , is IC50 less than 0.05 µM?
Result: NOT MET

Task: In the record for COCCOc1ccn2c(C(=O)Nc3cccc4c3cnn4CC3CN(C(=O)OC(C)(C)C)CCO3)cnc2c1 (stereo not shown) [Example 123] , is IC50 less than 0.05 µM?
Result: NOT MET

Task: In the record for O=C(Nc1cccc2c1cnn2Cc1ccccc1)c1cnc2cc(-c3cn[nH]c3)ccn12 [Example 145] , is IC50 less than 0.05 µM?
Result: NOT MET

Task: In the record for CN1CCN(CCOc2ccn3c(C(=O)Nc4cccc5c4cnn5Cc4cccc(C(=O)N(C)C)c4)cnc3c2)CC1 [Example 97, dihydrochloride] , is IC50 less than 0.05 µM?
Result: MET

Task: In the record for Cc1nn(Cc2cccc(CC(C)C)n2)c2cccc(NC(=O)c3cnc4cc(OCCN5CCN(C)[C@@H](C)C5)ccn34)c12 [Example 40] , is IC50 less than 0.05 µM?
Result: NOT MET

Task: In the record for Cc1nn(Cc2cccc(C(C)C)n2)c2cccc(NC(=O)c3cnc4cc(OCCN5CC6(COC6)C5)ccn34)c12 [Example 5] , is IC50 less than 0.05 µM?
Result: NOT MET

Task: In the record for Cc1nn(Cc2cccc(C(C)C)n2)c2cccc(NC(=O)c3cnc4cc(OCCN5CCN[C@@H](C)C5)ccn34)c12 [Example 46] , is IC50 less than 0.05 µM?
Result: MET

Task: In the record for Cc1nn(Cc2cccc(C3CCCC3)n2)c2cccc(NC(=O)c3cnc4cc(OCCN5CCN(C)[C@@H](C)C5)ccn34)c12 [Example 33] , is IC50 less than 0.05 µM?
Result: MET

---

Target: c-KIT (Homo sapiens, UniProt P10721)
Construct: M-07e cells (human acute megakaryoblastic leukemia cell line) were serum-starved for 4 hours; endogenous in cells
Test: c-KIT Cell-Based Assay (Example D)
Conditions: averaged IC50; phospho-c-KIT in M-07e cells stimulated with 150 ng/ml recombinant human SCF; read-out: cKIT Cell ELISA IC50
Structures can show the parent of a compound that is named as a salt.
Observation type: IC50 (nM)
// note: answer is a bare numeric in nM

Task: Look up IC50: `Cc1cccc(Cn2nc(C)c3c(NC(=O)c4cnc5cc(CCN(C)C)ccn45)cccc32)n1`
Result: 7010

Task: Look up IC50: `CCc1cccc(Cn2nc(C)c3c(NC(=O)c4cnc5cc(OCCN6CCN(C)[C@@H](C)C6)ccn45)cccc32)n1`
Result: 119

Task: Look up IC50: `N#Cc1ccn2c(C(=O)Nc3cccc4c3cnn4Cc3ccccc3)cnc2c1`
Result: 165

Task: Look up IC50: `Cc1cccc(Cn2nc(C)c3c(NC(=O)c4cnc5cc(-c6cnn(C)c6)ccn45)cccc32)n1`
Result: 76.9

Task: Look up IC50: Cc1cccc(Cn2nc(C)c3c(NC(=O)c4cnc5cc(OCCO)ccn45)cccc32)n1 [Example 57, di-hydrochloride salt]
Result: 1270

Task: Look up IC50: `Cc1cccc(Cn2nc(C)c3c(NC(=O)c4cnc5cc(OCCN6CCN(C)[C@@H](C)C6)ccn45)cccc32)n1`
Result: 924

Task: Look up IC50: `Cc1nn(Cc2ccc(F)c(C(C)C)n2)c2cccc(NC(=O)c3cnc4cc(OCCN5CCN(C)[C@@H](C)C5)ccn34)c12`
Result: 87.2

Task: Look up IC50: `Cc1nn(Cc2csc(C(C)C)n2)c2cccc(NC(=O)c3cnc4cc(OCCN5CCN(C)CC5)ccn34)c12`
Result: 50.4

Task: Look up IC50: `COCCOc1ccn2c(C(=O)Nc3cccc4c3cnn4Cc3cccc(C(=O)OC)c3)cnc2c1`
Result: 6.4

Task: Look up IC50: `COCCOc1ccn2c(C(=O)Nc3cccc4c3cnn4Cc3cccc(OCc4ccccc4)c3)cnc2c1`
Result: 23

Task: Look up IC50: Cc1cccc(Cn2nc(C)c3c(NC(=O)c4cnc5cc(C(C)NCCO)ccn45)cccc32)n1 (stereo not shown)
Result: 5000

Task: Look up IC50: `CN1CCN(CCOc2ccn3c(C(=O)Nc4cccc5c4cnn5Cc4ccccc4)cnc3c2)CC1`
Result: 9.5

Task: Look up IC50: `COCCOc1ccn2c(C(=O)Nc3cccc4c3cnn4CC3CCN(C(=O)OC(C)(C)C)CC3)cnc2c1`
Result: 60.9

Task: Look up IC50: `Cc1nn(Cc2cccc(C(C)C)n2)c2cccc(NC(=O)c3cnc4cc(OCCN5CCN(C(C)C)CC5)ccn34)c12`
Result: 57

Task: Look up IC50: `Cc1cccc(Cn2nc(C)c3c(NC(=O)c4cnc5cc(-c6ccnn6C)ccn45)cccc32)n1`
Result: 455

Task: Look up IC50: CN1CCN(CCOc2ccn3c(C(=O)Nc4cccc5c4cnn5Cc4cccnc4)cnc3c2)CC1 [Example 102, trihydrochloride]
Result: 94.9
